- Subject Of Test: T1, KIX domain of CREB-binding protein (residues 586–672 of mouse CBP) (mouse, UniProt P45481 586-672)
- T1 construct: KIX domain, residues 586-672 of mouse CBP; 6xHis-tag and thrombin cleavage site at the N-terminus; source: E. coli BL21(DE3)pLysS, purified (Ni-NTA, gel filtration on Superdex 200 pg)
- Experiment Description: fluorescence polarisation; competition: inhibitor (0–200 μM) titrated into a mixture of KIX (2 μM) and FITC-MLL (25 nM); 30 °C; 20 mM sodium phosphate pH 7.0, 100 mM NaCl, 0.005% Tween 20
- Assay Context: both partners purified
Below: a set of entries, each annotated with reported IC50.

Binder	Units	IC50
GNILPSDIMDFVLKNWPSMQALGESPESY (MLL TAD, residues 2842-2869 of human MLL, with the substitution; Tyr residue attached at the C-terminus for concentration determination by UV absorption; also called designed peptide; source: E. coli BL21(DE3), purified (Ni-NTA)) [designed T2857W peptide used as inhibitor in fluorescence polarization]	µM	3.48
GNILPSDIMDFVLKNTPSMQALGESPESY (MLL TAD, residues 2842-2869 of human MLL; Tyr residue attached at the C-terminus for concentration determination by UV absorption; also called wild-type peptide; WT; source: E. coli BL21(DE3), purified (Ni-NTA)) [wild-type MLL TAD peptide used as inhibitor in fluorescence polarization]	µM	7.1
